Entries and their measured pEC50 follow.
Target: human APJ receptor (Homo sapiens (Human), UniProt P35414)
Sequence (P35414 whole entry): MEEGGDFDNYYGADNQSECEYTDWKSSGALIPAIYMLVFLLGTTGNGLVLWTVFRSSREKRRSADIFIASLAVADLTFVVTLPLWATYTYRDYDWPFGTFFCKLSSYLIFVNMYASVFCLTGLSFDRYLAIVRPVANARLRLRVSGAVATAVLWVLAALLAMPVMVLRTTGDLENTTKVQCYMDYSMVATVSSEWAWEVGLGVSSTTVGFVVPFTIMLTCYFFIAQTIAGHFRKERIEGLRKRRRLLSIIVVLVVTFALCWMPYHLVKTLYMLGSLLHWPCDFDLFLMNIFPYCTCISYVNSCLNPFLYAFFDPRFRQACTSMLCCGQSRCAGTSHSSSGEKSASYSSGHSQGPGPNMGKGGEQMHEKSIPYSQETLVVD
Assay: [35S]GTPγS binding assay on membranes from CHO cells stably expressing human APJ receptor
Format: biochemical
Conditions: [35S]GTPγS SPA, read-out: Activity hAPJ SPA EC50 IP
pEC50: −log10 of the molar value.
quantity kind: pEC50

{"molecule": "COc1ncnc(OC)c1-n1c(NS(=O)(=O)[C@@H](C)[C@H](C)c2ncc(Cl)cn2)nnc1[C@@H]1CC[C@@H]1C(F)F (stereo in doubt)", "observed result": 7.70}
{"molecule": "COc1cccc(OC)c1-n1c(NS(=O)(=O)[C@@H](C)[C@H](OC)c2ncc(Cl)cn2)nnc1[C@H]1CC[C@H](OC)C1 (single isomer, unassigned) [Example 215.0]", "observed result": 7.18}
{"molecule": "COc1ncnc(OC)c1-n1c(NS(=O)(=O)[C@@H](C)[C@@H](OC(C)C)c2ncc(Cl)cn2)nnc1[C@@H]1CC[C@@H]1C(F)F (single isomer, unassigned) [Example 167.0]", "observed result": 7.89}

###

Molecular target: human APJ receptor (Homo sapiens (Human))
Experiment: [35S]GTPγS binding assay on membranes from CHO cells stably expressing human APJ receptor
Type: biochemical
Settings: [35S]GTPγS SPA, read-out: Activity hAPJ SPA EC50 IP
pEC50: −log10 of the molar value.

{"compound": "COc1cccc(OC)c1-n1c(NS(=O)(=O)[C@@H](C)[C@H](OC)c2ncc(Cl)cn2)nnc1C1CC(F)(F)C1 [Example 147.0]", "target entity": "human APJ receptor (Homo sapiens (Human))", "pEC50": 8.19}
{"compound": "COc1cccc(OC)c1-n1c(NS(=O)(=O)[C@@H](C)[C@H](OC)c2ncc(C)cn2)nnc1C1CCC1 [Example 141.0]", "target entity": "human APJ receptor (Homo sapiens (Human))", "pEC50": 7.48}
{"compound": "COc1ncnc(OC)c1-n1c(NS(=O)(=O)[C@@H](C)[C@H](OC)c2ncc(Cl)cn2)nnc1[C@H]1C[C@@H](C(F)(F)F)C1 (single isomer, unassigned) [Example 177.0]", "target entity": "human APJ receptor (Homo sapiens (Human))", "pEC50": 7.64}
{"compound": "COc1cccc(OC)c1-n1c(NS(=O)(=O)[C@@H](C)[C@@H](OC(C)C)c2ncc(C)cn2)nnc1[C@@H]1CCC[C@@H]1OC (single isomer, unassigned) [Example 233.0]", "target entity": "human APJ receptor (Homo sapiens (Human))", "pEC50": 7.03}
{"compound": "CO[C@H](c1ncc(Cl)cn1)[C@H](C)S(=O)(=O)Nc1nnc([C@H]2C[C@H](CO)C2)n1C1CC1 (single isomer, unassigned) [Example 134.0]", "target entity": "human APJ receptor (Homo sapiens (Human))", "pEC50": 5.88}
{"compound": "CO[C@H](c1ncc(Cl)cn1)[C@H](C)S(=O)(=O)Nc1nnc(C2CCC2)n1-c1c(F)cccc1F [Example 94.0]", "target entity": "human APJ receptor (Homo sapiens (Human))", "pEC50": 9.14}
{"compound": "COc1ncnc(OC)c1-n1c(NS(=O)(=O)[C@@H](C)[C@H](OC)c2ncc(Cl)cn2)nnc1[C@H]1C[C@H](C)C1 [Example 185.0]", "target entity": "human APJ receptor (Homo sapiens (Human))", "pEC50": 8.57}
{"compound": "CO[C@H](c1ncc(Cl)cn1)[C@H](C)S(=O)(=O)Nc1nnc([C@H]2C[C@H](CO)C2)n1C(C)C (single isomer, unassigned) [Example 136.0]", "target entity": "human APJ receptor (Homo sapiens (Human))", "pEC50": 5.49}
{"compound": "COc1ncnc(OC)c1-n1c(NS(=O)(=O)[C@@H](C)[C@H](OC)c2ncc(Cl)cn2)nnc1[C@H]1C[C@]2(CC2(F)F)C1 (single isomer, unassigned) [Example 205.0]", "target entity": "human APJ receptor (Homo sapiens (Human))", "pEC50": 8.26}
{"compound": "COc1ncnc(OC)c1-n1c(NS(=O)(=O)[C@@H](C)[C@H](OC)c2ncc(Cl)cn2)nnc1[C@H]1CC[C@@H](C(F)(F)F)CC1 (single isomer, unassigned) [Example 172.0]", "target entity": "human APJ receptor (Homo sapiens (Human))", "pEC50": 6.43}
{"compound": "COc1ncnc(OC)c1-n1c(NS(=O)(=O)[C@@H](C)[C@@H](OC(C)C)c2ncc(C)cn2)nnc1C1CCC1 [Example 83.0]", "target entity": "human APJ receptor (Homo sapiens (Human))", "pEC50": 8.22}
{"compound": "COc1ncnc(OC)c1-n1c(NS(=O)(=O)[C@@H](C)[C@H](OC)c2ncc(C)cn2)nnc1C1CC2(CC2)C1 [Example 200.0]", "target entity": "human APJ receptor (Homo sapiens (Human))", "pEC50": 8.34}

Each recorded value in this set is attributed to patent US11020395B2.
